Reference source: ChEMBL document CHEMBL3992507

experiment: Selectivity index, ratio of IC50 for African green monkey Vero cells to IC50 for chloroquine-sensitive Plasmodium falciparum D6 infected in human RBC; assay type: toxicity; details: read-out: Ratio IC50
Would you kindly list selectivity ratio for each of these molecules?

Notebook: `CCN(CC)c1nc(Cl)nc2c1ncn2CCNc1ccnc2cc(Cl)ccc12` , selectivity ratio read as > 2.4

Recorded result, `CCN1CCN(c2nc(Cl)nc3c2ncn3CCCNc2ccnc3cc(Cl)ccc23)CC1` , selectivity ratio: > 101

Query `Clc1ccc2c(NCCCn3cnc4c(N5CCSCC5)nc(Cl)nc43)ccnc2c1` yields selectivity ratio of > 22.6

Summary for this molecule, `CN(C)c1nc(Cl)nc2c1ncn2CCCNc1ccnc2cc(Cl)ccc12` : selectivity ratio is > 45

Briefly, selectivity ratio measured for `CN(C)c1nc(Cl)nc2c1ncn2CCNc1ccnc2cc(Cl)ccc12` : > 46.6

The molecule identified as `Clc1ccc2c(NCCn3cnc4c(N5CCCCC5)nc(Cl)nc43)ccnc2c1` registered its selectivity ratio at > 31.1

GET /value?item= `CN1CCN(c2nc(Cl)nc3c2ncn3CCCNc2ccnc3cc(Cl)ccc23)CC1` &field=selectivity ratio returns > 145

response.value for `Clc1ccc2c(NCCn3cnc4c(N5CCCC5)nc(Cl)nc43)ccnc2c1` (field: selectivity ratio) = > 25

The recorded selectivity ratio for entry `Clc1ccc2c(NCCCn3cnc4c(N5CCCC5)nc(Cl)nc43)ccnc2c1` equals > 10

Note to self: selectivity ratio recorded for `Clc1ccc2c(NCCn3cnc4c(N5CCSCC5)nc(Cl)nc43)ccnc2c1` was 19.5

----------
assay: Selectivity index, ratio of IC50 for African green monkey Vero cells to IC50 for chloroquine-sensitive Plasmodium falciparum D6 infected in human RBC; type: toxicity; conditions: read-out: Ratio IC50
measuredQuantity: selectivity ratio

selectivity ratio measured on `Clc1ccc2c(NCCn3cnc4c(N5CCCCCC5)nc(Cl)nc43)ccnc2c1` = > 24.9

Lab book: selectivity ratio of `Clc1ccc2c(NCCn3cnc4c(N5CCN(c6ccccc6)CC5)nc(Cl)nc43)ccnc2c1` noted as 26.2

Briefly, selectivity ratio measured for `CN1CCN(c2nc(Cl)nc3c2ncn3CCNc2ccnc3cc(Cl)ccc23)CC1` : > 124

The value of selectivity ratio measured for the compound `CCN(CC)c1nc(Cl)nc2c1ncn2CCCNc1ccnc2cc(Cl)ccc12` turned out to be > 19.3

Reported selectivity ratio for `CCN1CCN(c2nc(Cl)nc3c2ncn3CCNc2ccnc3cc(Cl)ccc23)CC1` was > 164

For reference, reported selectivity ratio for `Clc1ccc2c(NCCCn3cnc4c(N5CCCCCC5)nc(Cl)nc43)ccnc2c1` stands at > 8.3

The compound `Clc1ccc2c(NCCCn3cnc4c(N5CCN(c6ccccc6)CC5)nc(Cl)nc43)ccnc2c1` showed selectivity ratio equal to > 47.6

Data point: `Clc1ccc2c(NCCCn3cnc4c(N5CCOCC5)nc(Cl)nc43)ccnc2c1` ; selectivity ratio = > 12.5

Entry `Clc1ccc2c(NCCCn3cnc4c(N5CCCCC5)nc(Cl)nc43)ccnc2c1` ; selectivity ratio = > 3.1

response.value for `Clc1ccc2c(NCCn3cnc4c(N5CCOCC5)nc(Cl)nc43)ccnc2c1` (field: selectivity ratio) = > 53.4

----------
test: Selectivity index, ratio of IC50 for African green monkey Vero cells to IC50 for chloroquine-resistant Plasmodium falciparum W2 infected in human RBC; type: toxicity; conditions: read-out: Ratio IC50
Field: selectivity ratio. Provide a value for each of the molecules that follow.

Recorded selectivity ratio (molecule `CN(C)c1nc(Cl)nc2c1ncn2CCNc1ccnc2cc(Cl)ccc12` ): > 32.8

Given item `Clc1ccc2c(NCCn3cnc4c(N5CCSCC5)nc(Cl)nc43)ccnc2c1` , the value recorded as its selectivity ratio is 9.6

Recorded selectivity ratio (molecule `CCN(CC)c1nc(Cl)nc2c1ncn2CCNc1ccnc2cc(Cl)ccc12` ): > 1.6

Just so you know, measured selectivity ratio for `CCN1CCN(c2nc(Cl)nc3c2ncn3CCCNc2ccnc3cc(Cl)ccc23)CC1` came out at > 49.5

The molecule listed as `Clc1ccc2c(NCCCn3cnc4c(N5CCSCC5)nc(Cl)nc43)ccnc2c1` shows selectivity ratio equal to > 5.6

Data point: `Clc1ccc2c(NCCn3cnc4c(N5CCOCC5)nc(Cl)nc43)ccnc2c1` ; selectivity ratio = > 47.4

Looking up `Clc1ccc2c(NCCCn3cnc4c(N5CCN(c6ccccc6)CC5)nc(Cl)nc43)ccnc2c1` , I see its selectivity ratio listed as > 17.7

Recorded result, `CN1CCN(c2nc(Cl)nc3c2ncn3CCCNc2ccnc3cc(Cl)ccc23)CC1` , selectivity ratio: > 54.5

// sample `Clc1ccc2c(NCCCn3cnc4c(N5CCCCC5)nc(Cl)nc43)ccnc2c1` , its selectivity ratio was > 2.8

// `Clc1ccc2c(NCCn3cnc4c(N5CCCCCC5)nc(Cl)nc43)ccnc2c1` : selectivity ratio value = > 14.3
